# credit: paper PMC11513893

Experiment: Pharmacokinetics study in Sprague–Dawley rats
Format: in vivo
Details: Sprague-Dawley [Crl: CD (SD)], plasma; rat, 5 mg/kg po vs 0.5 mg/kg iv
readout-type: bioavailability (%)

(I) COc1cc(N2CCN(CC3CN(c4ccc5c(c4)CN(C4CCC(=O)NC4=O)C5=O)C3)CC2)ccc1Nc1ncc(Cl)c(Nc2ccccc2P(C)(C)=O)n1 (centres unmarked) [9m]
(II) COc1cc(N2CCC(N3CCN(CC4CCN(c5ccc6c(c5)CN(C5CCC(=O)NC5=O)C6=O)CC4)CC3)CC2)ccc1Nc1ncc(Cl)c(Nc2ccccc2P(C)(C)=O)n1 (centres unmarked) [9o]
Which is greater in bioavailability, the first item I or the second item II ? Response format: the label of the selected entry.
II
(II: 7.3%, I: 4.8%)

* * *

Test: Pharmacokinetics study in Sprague–Dawley rats
Format: in vivo
Details: Sprague-Dawley [Crl: CD (SD)], plasma; rat, 10 mg/kg po; read-out: AUC (po)
readout-type: AUC (ng·h/mL)

(I) COc1cc(N2CCC(N3CCN(CC4CN(c5ccc6c(c5)C(=O)N(C5CCC(=O)NC5=O)C6=O)C4)CC3)CC2)ccc1Nc1ncc(Cl)c(Nc2ccccc2P(C)(C)=O)n1 (stereo not drawn)
(II) COc1cc(N2CCC(N3CCN(CC4CCN(c5ccc6c(c5)C(=O)N(C5CCC(=O)NC5=O)C6=O)CC4)CC3)CC2)ccc1Nc1ncc(Cl)c(Nc2ccccc2P(C)(C)=O)n1 (stereo not drawn)
# return whichever of I and II has the smaller AUC Your answer should be the label attached to the chosen record.
II

* * *

System: Ba/F3 ROS1 L2026M
Test: Antiproliferation assay
Type: cell-based
Settings: Mus musculus, BaF3; Ba/F3 cells, cell growth inhibition
Description: To assess targeted degradation of ROS1 fusion proteins, we first established a mouse pro-B cell line Ba/F3 as a model expressing the CD74-ROS1 oncogene or CD74-ROS1 with clinically observed secondary/tertiary mutations. […] To assess the 72 h effect of drug treatment on cell proliferation, 2000 to 3000 cells were plated in replicates of three in 96-well plates. […] Luminescence was measured on a multiplate reader and analyzed. […]
readout-type: IC50 (nM)

Examples with answers:
[
  {
    "molecule": "CN1CCN(c2ccc(C(=O)Nc3n[nH]c4ccc(Cc5cc(F)cc(F)c5)cc34)c(NC3CCOCC3)c2)CC1",
    "value-units": "nM",
    "result": 56
  },
  {
    "molecule": "COc1cc(N2CCC(N3CCN(C)CC3)CC2)ccc1Nc1ncc(Cl)c(Nc2ccccc2P(C)(C)=O)n1",
    "value-units": "nM",
    "result": 48
  },
  {
    "molecule": "C[C@H]1Oc2cc(cnc2N)-c2c(nn(C)c2C#N)CN(C)C(=O)c2ccc(F)cc21",
    "value-units": "nM",
    "result": 1
  }
]

(I) COc1cc(N2CCC(N3CCN(CC4CCN(c5ccc6c(c5)CN(C5CCC(=O)NC5=O)C6=O)CC4)CC3)CC2)ccc1Nc1ncc(Cl)c(Nc2ccccc2P(C)(C)=O)n1 (centres unmarked)
(II) Cc1cc(Nc2ncc(Cl)c(Nc3ccccc3S(=O)(=O)C(C)C)n2)c(OC(C)C)cc1C1CCNCC1
Compare reported IC50 values for I and II . Which is lower? When you have decided, please share the label of that item.
I
(I: 2.5 nM, II: 43 nM)

* * *

System: ROS1
Test: ROS1 degradation in Ba/F3 cells (WES immunoblotting)
Assay type: cell-based
Conditions: concentration needed to reduce ROS1 protein by 50%, Ba/F3 cells
readout-type: DC50 (nM)

[
  {
    "molecule": "Cc1cc(Nc2ncc(Cl)c(Nc3ccccc3S(=O)(=O)C(C)C)n2)c(OC(C)C)cc1C1CCN(C2CN(C3CCN(c4ccc5c(c4)C(=O)N(C4CCC(=O)NC4=O)C5=O)CC3)C2)CC1 (centres unmarked)",
    "value-units": "nM",
    "DC50": 27
  },
  {
    "molecule": "Cc1cc(Nc2ncc(Cl)c(Nc3ccccc3S(=O)(=O)C(C)C)n2)c(OC(C)C)cc1C1CCN(C2CCN(c3cccc4c3C(=O)N(C3CCC(=O)NC3=O)C4=O)CC2)CC1 (centres unmarked)",
    "value-units": "nM",
    "DC50": 143
  }
]

(P) Cc1cc(Nc2ncc(Cl)c(Nc3ccccc3S(=O)(=O)C(C)C)n2)c(OC(C)C)cc1C1CCN(C2CCN(CC3CN(c4cccc5c4C(=O)N(C4CCC(=O)NC4=O)C5=O)C3)CC2)CC1 (centres unmarked)
(Q) COc1cc(N2CCN(CC3CCN(c4ccc5c(c4)C(=O)N(C4CCC(=O)NC4=O)C5=O)CC3)CC2)ccc1Nc1ncc(Cl)c(Nc2ccccc2P(C)(C)=O)n1 (centres unmarked)
(R) C[C@@H](Oc1cc(-c2cnn(C3CCN(c4cccc5c4C(=O)N(C4CCC(=O)NC4=O)C5=O)CC3)c2)cnc1N)c1c(Cl)ccc(F)c1Cl (some centres unmarked)
With regard to DC50, arrange the entries in ascending order, please. Reply with the item labels sorted in the order that was asked for.
Q, P, R

* * *

System: Ba/F3 ROS1 (SLC34A2) V2098I
Test: Antiproliferation assay
Assay type: cell-based
Details: Mus musculus, BaF3; Ba/F3 cell line
Protocol: Ba/F3 immortalized murine bone marrow–derived pro-B cells were obtained from Creative Biogene (Shirley, NY) and cultured in RPMI supplemented with 10% FBS and IL3 (0.5 ng/mL). […] To assess the 72 h effect of drug treatment on cell proliferation, 2000 to 3000 cells were plated in replicates of three in 96-well plates. […] Luminescence was measured on a multiplate reader and analyzed. […] IC50 values were determined using a nonlinear regression model with a sigmoidal dose response in GraphPad. […]
readout-type: IC50 (nM)

[
  {
    "compound": "C[C@H]1Oc2cc(cnc2N)-c2c(nn(C)c2C#N)CN(C)C(=O)c2ccc(F)cc21 [lorlatinib]",
    "result": 1.5
  },
  {
    "compound": "COc1cc(N2CCC(N3CCN(CC4CCN(c5ccc6c(c5)CN(C5CCC(=O)NC5=O)C6=O)CC4)CC3)CC2)ccc1Nc1ncc(Cl)c(Nc2ccccc2P(C)(C)=O)n1 (stereo not drawn) [9o]",
    "result": 4.6
  },
  {
    "compound": "C[C@H]1CNC(=O)c2cnn3ccc(nc23)N[C@H](C)c2cc(F)ccc2O1 [repotrectinib]",
    "result": 3.5
  }
]

* * *

Tested on: Ba/F3 CD74-ROS1 non mutant
Assay: Antiproliferation assay (Alamar Blue, 72 h)
Type: cell-based, mouse
Conditions: Mus musculus, BaF3, 72 h, Ba/F3 cells, cell growth inhibition
readout-type: IC50 (nM)

Below: 3 compounds and their reported IC50.
[
  {
    "compound": "COc1cc(N2CCN(c3ccc4c(c3)C(=O)N(C3CCC(=O)NC3=O)C4=O)CC2)ccc1Nc1ncc(Cl)c(Nc2ccccc2P(C)(C)=O)n1 (stereo not drawn)",
    "result": 112
  },
  {
    "compound": "COc1cc(N2CCN(CC3CN(c4ccc5c(c4)CN(C4CCC(=O)NC4=O)C5=O)C3)CC2)ccc1Nc1ncc(Cl)c(Nc2ccccc2P(C)(C)=O)n1 (stereo not drawn)",
    "result": 8
  },
  {
    "compound": "Cc1cc(Nc2ncc(Cl)c(Nc3ccccc3S(=O)(=O)C(C)C)n2)c(OC(C)C)cc1C1CCN(C2CCN(CC3CCN(c4ccc5c(c4)C(=O)N(C4CCC(=O)NC4=O)C5=O)CC3)CC2)CC1 (stereo not drawn)",
    "result": 147
  }
]

(A) COc1cc(N2CCN(c3ccc4c(c3)CN(C3CCC(=O)NC3=O)C4=O)CC2)ccc1Nc1ncc(Cl)c(Nc2ccccc2P(C)(C)=O)n1 (stereo not drawn)
(B) Cc1cc(Nc2ncc(Cl)c(Nc3ccccc3S(=O)(=O)C(C)C)n2)c(OC(C)C)cc1C1CCN(C2CN(C3CN(c4ccc5c(c4)C(=O)N(C4CCC(=O)NC4=O)C5=O)C3)C2)CC1 (stereo not drawn)
(C) COc1cc(N2CCC(N3CCN(CC4CCN(c5ccc6c(c5)CN(C5CCC(=O)NC5=O)C6=O)CC4)CC3)CC2)ccc1Nc1ncc(Cl)c(Nc2ccccc2P(C)(C)=O)n1 (stereo not drawn)
Put the entries in order of IC50, starting with the largest number. Return value: ordered labels per request.
B, A, C
(B: 116 nM, A: 6.6 nM, C: 1.1 nM)

* * *

System: Ba/F3 CD74-ROS1 non mutant
Experiment: Antiproliferation assay (Alamar Blue, 72 h)
Assay type: cell-based, mouse
Settings: Mus musculus, BaF3, Ba/F3 cells, cell growth inhibition
readout-type: IC50 (nM)
Give just the numeric value; nM need not be written.

Query: IC50; subject: CN1CCN(c2ccc(C(=O)Nc3n[nH]c4ccc(Cc5cc(F)cc(F)c5)cc34)c(NC3CCOCC3)c2)CC1 [entrectinib]
2.4
